This section presents compounds with their documented Hb values.
# Species on record: Rattus norvegicus
# assay.overview: Open TG-GATES - Regimen: Single
# Type: toxicity, organism-based, Sprague-Dawley
# Design: regimen Single, gender Male, age 6 weeks
# test.settings: in vivo, po, 300 mg/kg, 3 h, tissue Blood, route gavage, dose level Middle
Please reply with the bare figure in g/dL and do not write the unit itself.

Solved cases below.
[
  {
    "compound.structure.string": "CNC(=C[N+](=O)[O-])NCCSCc1ccc(CN(C)C)o1",
    "outcome.measure": "Hb",
    "u": "g/dL",
    "recorded.value": 13.1
  },
  {
    "compound.structure.string": "CN/C(=N/CCSCc1nc[nH]c1C)NC#N",
    "outcome.measure": "Hb",
    "u": "g/dL",
    "recorded.value": 12.6
  },
  {
    "compound.structure.string": "Cc1nnc2n1-c1ccc(Cl)cc1C(c1ccccc1Cl)=NC2",
    "outcome.measure": "Hb",
    "u": "g/dL",
    "recorded.value": 13.9
  },
  {
    "compound.structure.string": "COC(=O)C1=C(C)NC(C)=C(C(=O)OC)C1c1ccccc1[N+](=O)[O-]",
    "outcome.measure": "Hb",
    "u": "g/dL",
    "recorded.value": 12.8
  }
]

API: the following record is the query input.
Tell us which Hb value is on record for O=C(OC[C@H]1O[C@@H](OC(=O)c2cc(O)c(O)c(OC(=O)c3cc(O)c(O)c(O)c3)c2)[C@H](OC(=O)c2cc(O)c(O)c(OC(=O)c3cc(O)c(O)c(O)c3)c2)[C@@H](OC(=O)c2cc(O)c(O)c(OC(=O)c3cc(O)c(O)c(O)c3)c2)[C@@H]1OC(=O)c1cc(O)c(O)c(OC(=O)c2cc(O)c(O)c(O)c2)c1)c1cc(O)c(O)c(OC(=O)c2cc(O)c(O)c(O)c2)c1
12.7
